- TEST DETAILS: Worst-case calculation, Application 2 cheese packaging wrap exposure scenario
- TEST CONDITIONS: product SBDEV1284; 100% migration; 2.0 g/m^2 dry film
Counter-ions that a name gives are not always drawn.
Worst-case calculation as a percentage of SML (or restriction), Application 2 reference

# example entries with known answers
# COMPOUND, VALUE REPORTED
records = [
    ("O=C1NCCN1", "15.8 percentage of SML (or restriction)"),
    ("CCCCOC(=O)CC(O)(CC(=O)OCCCC)C(=O)OCCCC [0000077-94-1, Tributyl citrate]", "76.01 percentage of SML (or restriction)"),
    ("CCCC1OC(CCC)OC(CCC)O1 (stereo not shown)", "95.0 percentage of SML (or restriction)"),
]

(Q) Could you please provide reported Worst-case calculation as a percentage of SML (or restriction), Application 2 for CCCCCCCC/C=C\CCCCCCCC(=O)OCC [0000111-62-6, Ethyl Oleate] ? Thanks!
(A) 32.68 percentage of SML (or restriction)

----------
Below is a list of entries, each paired with its recorded Worst-case calculation as a percentage of SML (or restriction), EU Cube value.
- TEST DETAILS: Worst-case calculation (100% migration), standard EU Cube exposure model
- TEST CONDITIONS: product SBDEV1287; 100% migration; 2.0 g/m^2 dry film
Counter-ions that a name gives are not always drawn.

# COMPOUND, VALUE REPORTED
rows = [
    ("O=C1NC(=O)c2ccccc21 [0000085-41-6, Phthalimide]", "950 percentage of SML (or restriction)"),
    ("CCCCCCCC/C=C\\CCCCCCCC(=O)OCC [0000111-62-6, Ethyl Oleate]", "22.7 percentage of SML (or restriction)"),
    ("CCCCCCCC/C=C\\CCCCCCCC(=O)N(CCO)CCO [0000093-83-4, N,N-Bis(2-hydroxyethyl) oleamide]", "68 percentage of SML (or restriction)"),
    ("CCCC1OC(CCC)OC(CCC)O1 (stereo not drawn)", "68 percentage of SML (or restriction)"),
]

(Q) Look up and state reported Worst-case calculation as a percentage of SML (or restriction), EU Cube for O=C1NCCN1
(A) 11 percentage of SML (or restriction)

(Q) Using the record for CCCCOC(=O)CC(O)(CC(=O)OCCCC)C(=O)OCCCC [0000077-94-1, Tributyl citrate] , state its measured Worst-case calculation as a percentage of SML (or restriction), EU Cube.
(A) 52.8 percentage of SML (or restriction)

----------
- TEST DETAILS: Worst-case calculation, Application 2 cheese packaging wrap exposure scenario
- TEST CONDITIONS: product SBDEV976; 100% migration; 2.0 g/m^2 dry film
Where a name gives a salt, the structure may show the parent alone.
RECORDED METRIC: Worst-case calculation as a percentage of SML (or restriction), Application 2

Example results:
# MOLECULE, VALUE REPORTED
records = [
    ("CCCCOC(=O)CC(O)(CC(=O)OCCCC)C(=O)OCCCC [0000077-94-1, Tributyl citrate]", "79.6 percentage of SML (or restriction)"),
    ("CCCC1OC(CCC)OC(CCC)O1 (centres unmarked) [0002396-43-2, 2,4,6-tripropyl-1,3,5-Trioxane]", "87.8 percentage of SML (or restriction)"),
    ("O=C1NCCN1 [0000120-93-4, 2-Imidazolidinone]", "23.0 percentage of SML (or restriction)"),
    ("CCCCCCCC/C=C\\CCCCCCCC(=O)OCC [0000111-62-6, Ethyl Oleate]", "34.6 percentage of SML (or restriction)"),
]

Could you now look at the following molecule, please?
(Q) Entry c1ccc2ccccc2c1 [0000091-20-3, Naphthalene] needs its Worst-case calculation as a percentage of SML (or restriction), Application 2 filled in; supply it.
(A) 0.6 percentage of SML (or restriction)
